- Test target: UniProt Q8ZH62
- Experimental details: biochemical
- Applied conditions: IC50 FR900098

[
  {
    "Molecule": "CC(=O)N(O)CCCP(=O)(O)O [FR900098, reference compound]",
    "IC50, nM": 231
  }
]

###

Property: IC50; scope: individual compounds
- Test target: Y. pestis MEP synthase (Yersinia pestis, UniProt Q8ZH62)
- Sequence (Q8ZH62 whole entry, looked up): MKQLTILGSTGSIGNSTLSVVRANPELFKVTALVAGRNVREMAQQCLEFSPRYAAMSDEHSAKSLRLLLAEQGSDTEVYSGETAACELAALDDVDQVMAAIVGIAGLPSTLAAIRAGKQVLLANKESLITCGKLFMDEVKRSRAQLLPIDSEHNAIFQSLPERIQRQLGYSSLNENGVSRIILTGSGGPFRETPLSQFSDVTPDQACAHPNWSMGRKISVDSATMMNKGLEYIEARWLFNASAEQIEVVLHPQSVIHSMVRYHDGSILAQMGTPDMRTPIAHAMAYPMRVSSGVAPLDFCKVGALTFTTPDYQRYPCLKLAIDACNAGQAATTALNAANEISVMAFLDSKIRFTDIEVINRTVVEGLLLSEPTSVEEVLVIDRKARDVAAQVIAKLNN
- Applied conditions: read-out: IC50 (dose-response, Figure 9)

[
  {
    "Mol smiles": "O=C(c1ccc2ccccc2c1)N(O)CCCP(=O)(O)O",
    "IC50 / µM": 9.53
  },
  {
    "Mol smiles": "Cc1ccc(C(=O)N(O)CCCP(=O)(O)O)cc1",
    "IC50 / µM": 10.8
  },
  {
    "Mol smiles": "CC(=O)N(CCCP(=O)(O)O)OCc1ccc(-c2ccccc2)cc1",
    "IC50 / µM": 5.11
  }
]

###

- Test target: Y. pestis MEP synthase (Yersinia pestis, UniProt Q8ZH62)
- Experimental details: biochemical
- Applied conditions: IC50 (dose-response, Figure 9)
pIC50: −log10 of the molar value.

[
  {
    "Mol smiles": "C[C@@]1(CO)OP(=O)(O)OP(=O)(O)OC[C@H]1O",
    "pIC50": 5.39
  },
  {
    "Mol smiles": "C/C(=C\\COP(=O)(O)OP(=O)(O)O)CO",
    "pIC50": 5.38
  }
]

###

molecules and their reported Ki
- Test target: Y. pestis MEP synthase (Yersinia pestis, UniProt Q8ZH62)

[
  {
    "Molecule": "O=CN(O)CCCP(=O)(O)O [fosmidomycin]",
    "Uom": "µM",
    "Ki": 0.968
  },
  {
    "Molecule": "CC(=O)N(O)CCCP(=O)(O)O [FR900098, reference compound]",
    "Uom": "µM",
    "Ki": 0.17
  }
]

###

Listed here are molecules together with their documented IC50.
- Test target: Y. pestis MEP synthase (Yersinia pestis, UniProt Q8ZH62)
- Experimental details: biochemical
- Applied conditions: IC50 (enzyme preincubated with inhibitor, Figure 10)
Measure: IC50 (nM)

[
  {
    "Molecule": "C[C@@]1(CO)OP(=O)(O)OP(=O)(O)OC[C@H]1O [compound 15]",
    "Value reported": 1190
  },
  {
    "Molecule": "C/C(=C\\COP(=O)(O)OP(=O)(O)O)CO [compound 16]",
    "Value reported": 335
  }
]

###

- Test target: Y. pestis MEP synthase (Yersinia pestis)
- Experimental details: biochemical
- Applied conditions: read-out: inhibition of enzymatic activity (rational library screen)
Measure: inhibition at 100 µM

[
  {
    "Compound": "C[C@@]1(CO)OP(=O)(O)OP(=O)(O)OC[C@H]1O [compound 15]",
    "Measure": "inhibition at 100 µM",
    "Value reported": "> 75%"
  },
  {
    "Compound": "C/C(=C\\COP(=O)(O)OP(=O)(O)O)CO [compound 16]",
    "Measure": "inhibition at 100 µM",
    "Value reported": "> 75%"
  },
  {
    "Compound": "Cc1ccc(C(=O)N(O)CCCP(=O)(O)O)cc1 [compound 42]",
    "Measure": "inhibition at 100 µM",
    "Value reported": "> 75%"
  },
  {
    "Compound": "CC(=O)N(CCCP(=O)(O)O)OCc1ccc(-c2ccccc2)cc1 [compound 13]",
    "Measure": "inhibition at 100 µM",
    "Value reported": "> 75%"
  },
  {
    "Compound": "O=C(c1ccc2ccccc2c1)N(O)CCCP(=O)(O)O [compound 48]",
    "Measure": "inhibition at 100 µM",
    "Value reported": "> 75%"
  }
]

All values here come from paper PMC4149570.
